# TESTED TARGET: PDGFR (Homo sapiens)
# Sequence (P09619 33-1106): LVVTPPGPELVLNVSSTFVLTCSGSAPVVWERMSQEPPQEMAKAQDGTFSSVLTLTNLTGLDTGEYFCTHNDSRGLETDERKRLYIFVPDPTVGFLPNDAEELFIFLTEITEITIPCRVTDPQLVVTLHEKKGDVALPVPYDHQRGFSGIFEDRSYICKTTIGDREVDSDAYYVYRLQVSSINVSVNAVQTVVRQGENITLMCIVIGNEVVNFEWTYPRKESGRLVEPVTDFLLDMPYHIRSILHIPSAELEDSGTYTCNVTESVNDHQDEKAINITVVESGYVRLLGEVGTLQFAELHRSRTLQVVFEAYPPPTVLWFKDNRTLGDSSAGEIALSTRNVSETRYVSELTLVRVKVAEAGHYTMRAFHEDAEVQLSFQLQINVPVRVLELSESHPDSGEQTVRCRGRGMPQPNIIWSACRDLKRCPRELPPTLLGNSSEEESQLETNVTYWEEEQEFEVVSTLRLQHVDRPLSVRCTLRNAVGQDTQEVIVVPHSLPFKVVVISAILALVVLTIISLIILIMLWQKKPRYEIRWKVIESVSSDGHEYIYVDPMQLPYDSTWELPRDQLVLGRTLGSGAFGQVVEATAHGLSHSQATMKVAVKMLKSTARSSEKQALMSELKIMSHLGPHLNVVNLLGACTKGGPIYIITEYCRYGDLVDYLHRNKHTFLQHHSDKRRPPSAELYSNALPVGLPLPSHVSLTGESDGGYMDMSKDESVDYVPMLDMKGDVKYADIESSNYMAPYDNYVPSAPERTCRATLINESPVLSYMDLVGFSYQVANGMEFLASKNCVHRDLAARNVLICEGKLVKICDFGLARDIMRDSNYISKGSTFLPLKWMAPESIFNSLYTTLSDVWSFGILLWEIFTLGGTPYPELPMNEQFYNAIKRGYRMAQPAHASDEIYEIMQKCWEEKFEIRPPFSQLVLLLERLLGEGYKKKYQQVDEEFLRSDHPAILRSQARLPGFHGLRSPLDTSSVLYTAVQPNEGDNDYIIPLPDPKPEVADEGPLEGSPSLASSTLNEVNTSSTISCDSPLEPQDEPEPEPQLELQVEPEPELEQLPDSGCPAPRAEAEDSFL
# TEST DESCRIPTION: PDGF-R ELISA (cellular kinase assay)
# CONDITIONS: 50% inhibition of PTK activity over control
pIC50: −log10 of the molar value.
MEASURED ENDPOINT: pIC50

Solved cases (3 shown):
COC(=O)CCc1c[nH]c(C=C2C(=O)Nc3cc(OC)c(OC)cc32)c1C : 4.65
CCOC(=O)c1c[nH]c(C=C2C(=O)Nc3ccccc32)c1C : < 4.00
CCOC(=O)CCc1c(C(=O)OCC)[nH]c(C=C2C(=O)Nc3ccccc32)c1CC(=O)OCC : < 5.00

# next molecule below
Please fill in: pIC50 reported for `CCOC(=O)c1[nH]c(C=C2C(=O)Nc3ccccc32)c(C(C)=O)c1C` = < 5.00

* * *

# TESTED TARGET: FLK-1R (Mus musculus)
# Construct: expressed in transfected cells; host or cells: NIH3T3 C7#3
# Sequence (P35918 20-1345): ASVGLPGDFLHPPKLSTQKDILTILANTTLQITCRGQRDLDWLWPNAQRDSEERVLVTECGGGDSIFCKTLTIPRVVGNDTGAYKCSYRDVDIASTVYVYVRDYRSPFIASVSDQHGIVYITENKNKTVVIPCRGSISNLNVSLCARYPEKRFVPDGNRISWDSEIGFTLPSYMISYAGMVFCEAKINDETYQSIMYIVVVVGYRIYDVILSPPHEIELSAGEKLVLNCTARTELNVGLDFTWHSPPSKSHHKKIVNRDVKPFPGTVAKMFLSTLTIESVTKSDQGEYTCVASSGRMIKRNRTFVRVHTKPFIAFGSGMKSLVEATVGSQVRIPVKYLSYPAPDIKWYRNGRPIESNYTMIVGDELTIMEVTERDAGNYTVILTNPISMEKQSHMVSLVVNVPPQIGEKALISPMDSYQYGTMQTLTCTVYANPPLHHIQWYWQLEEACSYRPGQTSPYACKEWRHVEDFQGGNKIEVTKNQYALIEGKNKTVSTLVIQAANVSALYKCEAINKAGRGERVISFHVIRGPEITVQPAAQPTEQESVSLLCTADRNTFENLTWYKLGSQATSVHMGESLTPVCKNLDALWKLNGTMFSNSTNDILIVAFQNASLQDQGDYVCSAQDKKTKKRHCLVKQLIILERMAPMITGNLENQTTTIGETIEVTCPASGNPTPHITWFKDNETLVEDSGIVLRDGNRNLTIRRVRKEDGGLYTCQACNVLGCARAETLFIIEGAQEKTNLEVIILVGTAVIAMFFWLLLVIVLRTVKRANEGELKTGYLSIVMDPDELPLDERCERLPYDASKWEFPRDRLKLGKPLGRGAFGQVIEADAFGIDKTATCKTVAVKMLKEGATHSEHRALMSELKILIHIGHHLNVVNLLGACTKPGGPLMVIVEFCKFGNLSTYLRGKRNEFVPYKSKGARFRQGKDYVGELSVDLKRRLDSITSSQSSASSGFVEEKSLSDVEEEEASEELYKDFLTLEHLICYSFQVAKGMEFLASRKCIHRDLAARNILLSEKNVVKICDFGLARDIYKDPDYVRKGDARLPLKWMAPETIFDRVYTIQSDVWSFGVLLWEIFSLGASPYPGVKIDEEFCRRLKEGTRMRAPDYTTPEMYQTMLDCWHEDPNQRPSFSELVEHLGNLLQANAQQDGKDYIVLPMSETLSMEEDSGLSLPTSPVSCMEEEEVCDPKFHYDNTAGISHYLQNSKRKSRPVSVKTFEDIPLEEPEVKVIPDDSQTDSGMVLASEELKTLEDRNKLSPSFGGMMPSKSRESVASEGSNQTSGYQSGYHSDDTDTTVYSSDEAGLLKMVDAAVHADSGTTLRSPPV
# TEST DESCRIPTION: FLK-1 receptor ELISA in cells engineered to express Flk-1
# Assay type: cell-based
# CONDITIONS: 50% inhibition of PTK activity over control
pIC50: −log10 of the molar value.
Each entry gets false if its pIC50 stays under 5, and true if its pIC50 is 5 or above.

Previously resolved entries follow.
CCOC(=O)c1c(C)[nH]c(C=C2C(=O)Nc3ccc(NC(=O)c4ccc(C(=O)OC)cc4)cc32)c1C : false
COC(=O)Cc1c(Cl)[nH]c(C=C2C(=O)Nc3ccccc32)c1C(=O)OC : false
CCOC(=O)c1c[nH]c(C=C2C(=O)Nc3ccccc32)c1C : true
COC(=O)CCc1c[nH]c(C=C2C(=O)Nc3cc(OC)c(OC)cc32)c1C : false
CCOC(=O)CCc1c(C(=O)OCC)[nH]c(C=C2C(=O)Nc3ccccc32)c1CC(=O)OCC : false

Q. Textbook exercise: given the entry `CCOC(=O)c1[nH]c(C=C2C(=O)Nc3ccccc32)c(C(C)=O)c1C` , state whether its pIC50 is greater than or equal to 5.
A. false

Q. Textbook exercise: given the entry `COC(=O)CCc1c[nH]c(C=C2C(=O)Nc3ccccc32)c1C` , state whether its pIC50 is greater than or equal to 5.
A. true

Q. Textbook exercise: given the entry `CC(=O)c1[nH]c(C=C2C(=O)Nc3ccccc32)c(C)c1C` , state whether its pIC50 is greater than or equal to 5.
A. false

Q. Textbook exercise: given the entry `Cc1c[nH]c(C=C2C(=O)Nc3ccccc32)c1CCC(=O)O` , state whether its pIC50 is greater than or equal to 5.
A. true

Q. Textbook exercise: given the entry `CCOC(=O)c1c(C)[nH]c(C=C2C(=O)Nc3ccc(Br)cc32)c1C` , state whether its pIC50 is greater than or equal to 5.
A. true

* * *

# TESTED TARGET: HER2 Kinase (Homo sapiens)
# Sequence (P00533 25-645): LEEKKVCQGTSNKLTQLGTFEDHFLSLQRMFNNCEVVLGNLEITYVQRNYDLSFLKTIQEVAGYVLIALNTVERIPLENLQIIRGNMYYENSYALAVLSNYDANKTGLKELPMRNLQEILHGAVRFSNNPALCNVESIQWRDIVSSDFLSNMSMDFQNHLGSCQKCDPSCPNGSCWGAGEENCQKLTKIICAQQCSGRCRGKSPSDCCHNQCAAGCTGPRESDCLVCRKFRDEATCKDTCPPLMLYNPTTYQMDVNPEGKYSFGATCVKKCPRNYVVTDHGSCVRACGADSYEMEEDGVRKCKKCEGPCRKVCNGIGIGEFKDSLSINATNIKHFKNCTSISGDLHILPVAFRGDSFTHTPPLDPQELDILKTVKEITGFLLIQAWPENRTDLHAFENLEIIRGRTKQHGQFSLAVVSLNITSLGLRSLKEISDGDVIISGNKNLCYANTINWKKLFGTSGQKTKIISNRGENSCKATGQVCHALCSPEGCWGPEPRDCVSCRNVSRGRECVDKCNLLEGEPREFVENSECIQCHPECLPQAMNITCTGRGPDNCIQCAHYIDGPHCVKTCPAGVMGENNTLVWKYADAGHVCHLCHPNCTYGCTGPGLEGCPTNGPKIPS
# Sequence (P04626 676-1255): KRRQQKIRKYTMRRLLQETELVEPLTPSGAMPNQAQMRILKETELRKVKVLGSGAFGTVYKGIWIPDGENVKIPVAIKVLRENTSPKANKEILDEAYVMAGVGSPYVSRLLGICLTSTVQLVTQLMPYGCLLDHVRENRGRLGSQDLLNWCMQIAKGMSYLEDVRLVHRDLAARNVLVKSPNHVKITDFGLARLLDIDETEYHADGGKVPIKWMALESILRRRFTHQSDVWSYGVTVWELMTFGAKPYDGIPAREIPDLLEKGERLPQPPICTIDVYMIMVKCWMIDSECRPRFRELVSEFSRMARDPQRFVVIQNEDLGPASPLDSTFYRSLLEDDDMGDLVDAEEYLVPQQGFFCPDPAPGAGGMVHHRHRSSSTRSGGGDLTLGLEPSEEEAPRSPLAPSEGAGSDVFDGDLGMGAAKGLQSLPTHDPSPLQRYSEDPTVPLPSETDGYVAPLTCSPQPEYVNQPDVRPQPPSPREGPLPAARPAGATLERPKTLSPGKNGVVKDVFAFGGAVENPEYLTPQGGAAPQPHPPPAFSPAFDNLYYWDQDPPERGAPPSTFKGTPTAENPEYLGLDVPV
# TEST DESCRIPTION: HER-2 ELISA: EGF receptor-HER2 chimeric receptor assay in whole cells
# CONDITIONS: 50% inhibition of PTK activity over control
pIC50: −log10 of the molar value.
The following compounds are shown together with reported pIC50 values.

CCOC(=O)c1c[nH]c(C=C2C(=O)Nc3ccccc32)c1C : < 4.00
CCOC(=O)CCc1c(C(=O)OCC)[nH]c(C=C2C(=O)Nc3ccccc32)c1CC(=O)OCC : < 5.00

# next compound below
For the compound `COC(=O)CCc1c[nH]c(C=C2C(=O)Nc3cc(OC)c(OC)cc32)c1C` , the measured pIC50 on HER2 Kinase (Homo sapiens) was < 4.30

Source listed as patent US6486185B1.
